tested on: serotonin uptake by synaptosomes from rat brain; assay: blockage of serotonin uptake by synaptosomes from rat brain; assay type: biochemical; details: Table 1, serotonin 0.1 μM
Each entry below carries its reported Concentration in mcg./ml. that blocks 50% of amine uptake, Serotonin.
Entry rule: numbers only, all in µg/mL.

{"columns": ["compound", "measure.unit", "recorded.measurement"],
 "data": [
  ["CCOc1ccccc1OC(CCN(C)C)c1ccccc1 (centres unmarked)", "µg/mL", 6]
]}

Lab book: Concentration in mcg./ml. that blocks 50% of amine uptake, Serotonin of CN(C)CCC(Oc1ccc2ccccc2c1)c1ccccc1 (centres unmarked) noted as 1

###

tested on: serotonin uptake by synaptosomes from rat brain; test: blockage of serotonin uptake by synaptosomes from rat brain; type: biochemical; details: Table 1, serotonin 0.1 μM
measure.name: Concentration in mcg./ml. that blocks 50% of amine uptake, Serotonin

Check out these entries, answers already filled in.
{"columns": ["compound", "recorded.measurement"],
 "data": [
  ["CN(C)CCC(Oc1ccccc1C(F)(F)F)c1ccccc1 (centres unmarked)", ".16 µg/mL"],
  ["CN(C)CCC(Oc1ccc(F)cc1F)c1ccccc1 (centres unmarked)", ".3 µg/mL"],
  ["CCc1ccccc1OC(CCN(C)C)c1ccccc1 (centres unmarked)", "3.5 µg/mL"],
  ["CC(C)c1ccccc1OC(CCN(C)C)c1ccccc1 (centres unmarked)", "> 100 µg/mL"],
  ["CN(C)CCC(Oc1ccc(C(F)(F)F)cc1)c1ccccc1 (centres unmarked)", ".16 µg/mL"],
  ["CN(C)CCC(Oc1ccccc1Cl)c1ccccc1 (centres unmarked)", ".2 µg/mL"],
  ["COc1cccc(OC(CCN(C)C)c2ccccc2)c1 (centres unmarked)", ".08 µg/mL"],
  ["Cc1cc(F)ccc1OC(CCN(C)C)c1ccccc1 (centres unmarked)", ".6 µg/mL"]
]}

Lab book: Concentration in mcg./ml. that blocks 50% of amine uptake, Serotonin of CN(C)CCC(Oc1ccccc1C(C)(C)C)c1ccccc1 (centres unmarked) noted as 40 µg/mL

Lab book: Concentration in mcg./ml. that blocks 50% of amine uptake, Serotonin of CN(C)CCC(Oc1ccccc1)c1ccccc1 (centres unmarked) noted as .6 µg/mL

Lab book: Concentration in mcg./ml. that blocks 50% of amine uptake, Serotonin of CN(C)CCC(Oc1ccccc1Br)c1ccccc1 (centres unmarked) noted as .1 µg/mL

###

test system: mice; assay: apomorphine hypothermia antagonism test; format: in vivo; settings: Mus musculus, Table 5; mice; 3 mg./kg.; read-out: Percent Antagonism Apomorphine Pre-30 min.
Each entry below carries its reported inhibition in vivo at 3 mg/kg.
Entry rule: numbers only, all in %.

Check out these entries, answers already filled in.
{"columns": ["compound", "test.system", "measure.name", "recorded.measurement"],
 "data": [
  ["COc1ccc(OC(CCN(C)C)c2ccccc2)cc1 (centres unmarked)", "mice", "inhibition in vivo at 3 mg/kg", 25],
  ["CN(C)CCC(Oc1ccc(C(F)(F)F)cc1)c1ccccc1 (centres unmarked)", "mice", "inhibition in vivo at 3 mg/kg", 24],
  ["C=CCc1ccccc1OC(CCN(C)C)c1ccccc1 (centres unmarked)", "mice", "inhibition in vivo at 3 mg/kg", 11],
  ["CC(C)c1ccccc1OC(CCN(C)C)c1ccccc1 (centres unmarked)", "mice", "inhibition in vivo at 3 mg/kg", 39]
]}

Now consider a different compound.
Lab book: inhibition in vivo at 3 mg/kg of CN(C)CCC(Oc1ccc(F)cc1F)c1ccccc1 (centres unmarked) noted as 55
